- Test system: UO-31 renal
- Assay Details: NCI tumour cell line growth inhibition, 48 h
Reported TGI is given for each of the following compounds.

Record CSc1ccccc1C#C/C=C\C#Cc1ccccc1N1CCCC1=O : what is its TGI with UO-31 renal?
> 50 µM

What measured TGI is associated with Cc1cc(=O)[nH]c2cc3oc4ccccc4c3cc12 on UO-31 renal?
> 100 µM

What TGI appears in the records for this compound with UO-31 renal? C=CCc1cc(OC)c2c(c1)C(O)CC(c1ccc(OC)c(OC)c1)O2 (stereo not drawn)
> 100 µM

----------
In this section, each of the compounds is paired with its reported TGI.
- Test system: CCRF-CEM leukemia
- Assay Details: NCI tumour cell line growth inhibition, 48 h

Below: 4 compounds and their reported TGI.
>  <Compound>
NC(CCCCCCCCCCP(=O)(O)O)C(=O)O (stereo not given)

>  <Recorded Measurement>
> 100 µM

$$$$
>  <Compound>
COc1cc(/C=C/c2cc(/C=C/c3ccc(O)c(OC)c3)n(C(=O)Nc3ccc(F)cc3)n2)ccc1O

>  <Recorded Measurement>
9.57 µM

$$$$
>  <Compound>
Cc1c2n(c(=O)[nH]c1=O)C1OC(CO)C(O2)C1N=[N+]=[N-] (stereo not given)

>  <Recorded Measurement>
> 100 µM

$$$$
>  <Compound>
COC(=O)[C@@H](C)C[C@H](Cc1ccc(F)cc1)NC(=O)c1csc([C@@H](C[C@H](C(C)C)N(C)C(=O)[C@@H](NC(=O)[C@H]2CCCCN2C)C(C)C)OC(C)=O)n1

>  <Recorded Measurement>
> 16.7 µM

$$$$

We now examine a further compound.
Form field - read-out: TGI; system: CCRF-CEM leukemia; submitted item: COc1ccc(/C=c2/sc3n(c2=O)C(c2ccccc2)C2(O)CCCCC2N=3)cc1 (stereo not given)
> 12.5 µM
